Test system: P388 leukemia ip, CD2F1 mice, survival T/C
Assay: NCI In Vivo Anticancer Drug Screen. Data for tumor model P388 Leukemia (intraperitoneal) in CD2F1 (CDF1) mice
Conditions: endpoint: median survival time; dose: 200.0 mg/kg/injection; schedule: Q01DX009 (ip); vehicle: saline; higher = longer survival
Toxic doses and inconclusive results are not listed.
T/C for assorted molecules

molecule="CP1(=O)CCC23CCCCC21O3 (centres undefined)" experimental_result="95 % of control"
molecule="CC(N=c1ccccn1O)C(O)c1ccccc1 (centres undefined)" experimental_result="97 % of control"
molecule=Cc1ccccc1CN1C2=NCCN2C(=O)C2=C1CCN(S(=O)(=O)c1ccc(Cl)c(S(N)(=O)=O)c1)C2 experimental_result="90 % of control"

Turning to the following molecule.
Prompt line: For the molecule shown here, ClCC#CCOc1c(Cl)cccc1Cl , give the reported T/C.
Response line: 98 % of control

====

Tested on: P388 leukemia ip, CD2F1 mice, survival T/C
Test: NCI In Vivo Anticancer Drug Screen. Data for tumor model P388 Leukemia (intraperitoneal) in CD2F1 (CDF1) mice
Conditions: endpoint: median survival time; dose: 50.0 mg/kg/injection; schedule: Q01DX005 (ip); vehicle: Klucel (hydroxypropylcellulose) (HPC); higher = longer survival
Inconclusive results and toxic doses are left out. Square brackets hold non-standard residues; d marks the D form. Peptide text beside a SMILES is read from it. * marks the point of attachment. ξ: configuration not given here. Cbz = O=C(OCc1ccccc1)*; Bn = c1ccc(C*)cc1; ξC = NC(CS)C(=O)O
T/C for assorted molecules

Answered cases to consult:
molecule="COc1cccc([B-]23OCC[N+]2(CNC(=O)C2=C(O)C4(O)C(=O)C5=C(O)c6c(O)cccc6C(C)(O)C5CC4C(N(C)C)C2=O)CCO3)c1 (stereo not given)" experimental_result="110 % of control"
molecule="COc1cc2c(cc1C(C)c1cc(OC)c(OC)c(OC)c1)OCO2 (stereo not given)" experimental_result="99 % of control"

Prompt line: For the molecule shown here, C[Si]1(C)N(c2ccccc2)[Si](C)(c2ccccc2)N1c1ccccc1 , give the reported T/C.
Response line: 94 % of control

Prompt line: Now give it for CC(=O)NCCSSCCSC(=S)N1CCCCC1 too.
Response line: 112 % of control

Prompt line: Now give it for O=C(c1ccccc1)N1OC12CCCCC2 too.
Response line: 102 % of control

Prompt line: Now give it for CC1(C)[S][Sn]2[NH]C1C(=O)[O]2 (stereo not given) too.
Response line: 98 % of control

Prompt line: Now give it for O=C1c2ccccc2C(=O)c2c(NCCC3CCCN4CCCCC34)cccc21 (stereo not given) too.
Response line: 94 % of control

Prompt line: Now give it for O=C(OCc1ccccc1)C(Cc1c[nH]c2ccccc12)n1cnc2ccccc2c1=O (stereo not given) too.
Response line: 96 % of control

Prompt line: Now give it for Cc1ccc(-c2nnc3cc(C)n4nnnc4n23)cc1 too.
Response line: 101 % of control

Prompt line: Now give it for O=P1(N2CCOCC2)OC(c2ccccc2)=CCN1c1ccc(Cl)cc1 (stereo not given) too.
Response line: 104 % of control

Prompt line: Now give it for CN(C)C1=CC(=S)NC(c2ccccc2)C1 (stereo not given) too.
Response line: 103 % of control

Prompt line: Now give it for OCc1c(-c2ccc(Cl)cc2)c(-c2ccccc2)c2n1CCC2 too.
Response line: 94 % of control

Prompt line: Now give it for CC1(C)Nc2cccc3cccc(c23)N1 too.
Response line: 108 % of control

Prompt line: Now give it for NC(N)=NNC(O)(C(=O)O)C(=O)O too.
Response line: 100 % of control

Prompt line: Now give it for CCCC1OP(=O)(N2CC(C)N(P3(=O)OCC(CC)C(CCC)O3)CC2C)OCC1CC (stereo not given) too.
Response line: 90 % of control

Prompt line: Now give it for O=C(CNC(=O)OCc1ccccc1)NCC(=O)NC(CSCc1ccccc1)C(=O)O (stereo not drawn) (Cbz-Gly-Gly-[ξC](Bn)-OH) too.
Response line: 101 % of control

Prompt line: Now give it for CC1CC2OC(=O)CC2C(O)C2(C)C(OC(C)(C)C)CCC12 (stereo not given) too.
Response line: 100 % of control
